Origin of measurements: ChEMBL document CHEMBL1135997

pKi: −log10 of the molar value.
This document collects pKi values reported for Carbonic anhydrase 1 (Homo sapiens, UniProt P00915).
measure.name: pKi

smiles	tested.target	pKi
NS(=O)(=O)NS(=O)(=O)c1cccc(C(=O)O)c1	Carbonic anhydrase 1 (Homo sapiens, UniProt P00915)	8.22

(a) NS(=O)(=O)NS(=O)(=O)c1c(F)c(F)c(F)c(F)c1F
(b) NS(=O)(=O)NC(=O)NS(=O)(=O)c1ccc(F)cc1
Pick one: a or b . Which has the bigger pKi number? Give the chosen item's label as your response.
a
(a: 8.52, b: 8.22)

====

Biological target: Carbonic anhydrase 2 (Homo sapiens, UniProt P00918)
measure.name: Ki (µM)

compound	tested.target	Ki [µM]
C/C(=N/S(N)(=O)=O)c1ccc(N(C)C)cc1	Carbonic anhydrase 2 (Homo sapiens, UniProt P00918)	0.02

(I) O=S(=O)(O)NS(=O)(=O)c1c(F)c(F)c(F)c(F)c1F [(PENTAFLUOROPHENYL)SULFONYLSULFAMIC ACID]
(II) NS(=O)(=O)NS(=O)(=O)c1cccc(C(=O)O)c1
Consider entries I and II . Which has the numerically lower Ki? Give the chosen item's label as your response.
II
